Measured IC50, listed per entry.
# Assay target: hITK enzyme (FLAG-tagged full-length hITK) (Homo sapiens, UniProt Q08881)
# Construct: strongly expressing FLAG-tagged full-length hITK in Sf9 cells; FLAG; made in house; host or cells: Sf9 insect cells (ITK); Escherichia coli (GST-SLP76 substrate)
# Sequence (Q08881 whole entry): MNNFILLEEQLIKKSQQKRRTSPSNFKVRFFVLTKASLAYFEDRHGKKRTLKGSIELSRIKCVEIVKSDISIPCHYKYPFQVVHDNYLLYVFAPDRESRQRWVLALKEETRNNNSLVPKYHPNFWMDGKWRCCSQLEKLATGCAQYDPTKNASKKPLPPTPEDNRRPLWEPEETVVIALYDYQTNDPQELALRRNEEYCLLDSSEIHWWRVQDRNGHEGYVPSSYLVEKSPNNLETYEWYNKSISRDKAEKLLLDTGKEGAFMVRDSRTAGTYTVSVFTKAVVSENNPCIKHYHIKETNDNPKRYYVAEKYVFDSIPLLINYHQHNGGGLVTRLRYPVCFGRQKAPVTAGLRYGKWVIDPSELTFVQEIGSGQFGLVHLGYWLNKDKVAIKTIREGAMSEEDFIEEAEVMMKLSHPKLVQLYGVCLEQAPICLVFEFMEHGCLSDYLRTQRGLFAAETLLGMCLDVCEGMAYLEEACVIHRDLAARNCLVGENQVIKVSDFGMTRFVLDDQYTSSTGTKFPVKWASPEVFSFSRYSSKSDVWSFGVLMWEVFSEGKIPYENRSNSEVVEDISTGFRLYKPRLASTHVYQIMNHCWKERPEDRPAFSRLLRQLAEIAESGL
# Procedure text: ITK inhibitory activity (HTRF kinase assay, biotinylated GST-SLP76 substrate)
# Assay type: biochemical
# Condition label: IC50 calculated from the 2 test compound concentrations sandwiching 50% ITK inhibitory rate

Compound | Censoring operator | IC50 (nM)
CC(=O)N(CCO)c1ccc2cc(-c3n[nH]c4c3CCC(C)(C)C4)[nH]c2c1 | < | 3
CN(C(=O)CN1CCOCC1)c1ccc2cc(-c3n[nH]c4c3CCC(C)(C)C4)[nH]c2c1 | = | 3
CC(CO)C(=O)N(C)c1ccc2cc(-c3n[nH]c4c3CCC(C)(C)C4)[nH]c2c1 (stereo not shown) | = | 6
COCC(NC(=O)c1ccc2cc(-c3n[nH]c4c3CCC(C)(C)C4)[nH]c2c1)C(C)C (stereo not shown) | = | 25
COC1CCN(C(C)C(=O)N(C)c2ccc3cc(-c4n[nH]c5c4CCC(C)(C)C5)[nH]c3c2)CC1 (stereo not shown) | = | 9
CC1(C)CCc2c(-c3cc4ccc(N(CCO)C(=O)C(O)C5CCCOC5)cc4[nH]3)n[nH]c2C1 (stereo not shown) [Example 246] | = | 7
CN(CCO)C(=O)c1ccc2[nH]c(-c3n[nH]c4c3CCC(C)(C)C4)cc2c1 | = | 27
CN(CC(=O)N(C)c1ccc2cc(-c3n[nH]c4c3CCC(C)(C)C4)[nH]c2c1)C(=O)C1CC1 | = | 1
CCC(=O)N(CCO)c1ccc2cc(-c3n[nH]c4c3CCC(C)(C)C4)[nH]c2c1 | = | 4
CCC(=O)N(C)c1ccc2cc(-c3n[nH]c4c3CCC(C)(C)C4)[nH]c2c1 [Example 32] | = | 4
CC1CCN(CC(=O)N(CCO)c2ccc3cc(-c4n[nH]c5c4CCC(C)(C)C5)[nH]c3c2)C1=O (stereo not shown) | = | 1
CC[C@H](C(=O)N(C)c1ccc2cc(-c3n[nH]c4c3CCC(C)(C)C4)[nH]c2c1)N1CCOCC1 | = | 7
CC(CO)N(C)C(=O)c1ccc2cc(-c3n[nH]c4c3CCC(C)(C)C4)[nH]c2c1 (stereo not shown) | = | 39
CC1CN(CC(=O)N(C)c2ccc3cc(-c4n[nH]c5c4CCC(C)(C)C5)[nH]c3c2)CC(C)O1 (stereo not shown) | = | 3
CC(=O)N1CCC[C@H]1C(=O)N(C)c1ccc2cc(-c3n[nH]c4c3CCC(C)(C)C4)[nH]c2c1 | = | 5
CN1CCN(C(=O)c2ccc3cc(-c4n[nH]c5c4CCC(C)(C)C5)[nH]c3c2)CC1 | = | 40
